Molecular target: T1, human EpCAM protein (human, UniProt P16422 24-265)
T1 construct: biotinylated in the Octet assays; also called hu EpCAM; biotinylated human EpCAM protein
T1 sequence (looked up): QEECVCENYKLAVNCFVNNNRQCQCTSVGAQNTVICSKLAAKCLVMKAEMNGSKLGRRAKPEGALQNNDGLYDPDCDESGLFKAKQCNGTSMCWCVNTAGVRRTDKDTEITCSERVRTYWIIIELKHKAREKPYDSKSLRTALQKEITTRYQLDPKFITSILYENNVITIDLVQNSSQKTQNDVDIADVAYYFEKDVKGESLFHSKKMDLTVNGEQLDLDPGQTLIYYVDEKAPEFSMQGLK
Test: colorimetric ELISA
Parameter measured: Human EpCAM/Control (ratio)
Expressed in ratio, but write only the number.

Answered cases to consult:
# Binder, Human EpCAM/Control [ratio]
rows = [
    ("Llama anti-EpCAM single domain antibody EPL55 (VHH, E. coli periplasmic extract) VHH: QVQLQESGGGLVQAGGSLRLSCAASGDTFLRYAMGWFRQAPGKEREFVAAITWNGGNTDYAGSLKGRFTISRDNTKNTVYLQMNSLKPEDTAVYYCAADLTFGLASSHYQYDYWGQGTQVTVSS", 5),
    ("Llama anti-EpCAM single domain antibody EPL164 (VHH, E. coli periplasmic extract) VHH: QVQLQESGGGLVQAGGSLRLSCAASGFIFRAASMDWYRQSPGTQPELVATISSTGFTNYANSVKGRFTISRDNAKNTVYLQMNSLKPEDTAVYFCGATFLRSDGQHSIYGQGTQVTVSS", 7),
    ("Llama anti-EpCAM single domain antibody EPL152 (VHH, E. coli periplasmic extract) VHH: QVQLQESGGGLVQAGGSLRLSCVHSGSIFRASTMAWYRQAPGKQRELVAQIMSGGGTNYAGSVKGRFTISRDNANNTVYLQMNSLKPEDTAVYYCNAAQITSWGPKVYWGQGTQVTVSS", 4),
]

Note: attention shifts to another entry.
Record summary for Llama anti-EpCAM single domain antibody EPL129 (VHH, E. coli periplasmic extract) VHH: QVQLQESGGGLVQAGGSLRLSCAASGFAFGNHWMYWYRQAPGRGRELVASISSGGSTNYVDSVKGRFTISRDNARNTVYLQMYSLRPEDTAVYYCGTSDNWGQGTQVTVSS : reported Human EpCAM/Control = 20
